biological target: Sodium-dependent serotonin transporter (Rattus norvegicus, UniProt P31652); assay: Binding affinity of the radio labeled [3H]5-Methyl-6-nitroquipazine compound against Serotonin transporter in rat frontal cortex homogenates; type: tissue-based
Sequence (P31652 whole entry): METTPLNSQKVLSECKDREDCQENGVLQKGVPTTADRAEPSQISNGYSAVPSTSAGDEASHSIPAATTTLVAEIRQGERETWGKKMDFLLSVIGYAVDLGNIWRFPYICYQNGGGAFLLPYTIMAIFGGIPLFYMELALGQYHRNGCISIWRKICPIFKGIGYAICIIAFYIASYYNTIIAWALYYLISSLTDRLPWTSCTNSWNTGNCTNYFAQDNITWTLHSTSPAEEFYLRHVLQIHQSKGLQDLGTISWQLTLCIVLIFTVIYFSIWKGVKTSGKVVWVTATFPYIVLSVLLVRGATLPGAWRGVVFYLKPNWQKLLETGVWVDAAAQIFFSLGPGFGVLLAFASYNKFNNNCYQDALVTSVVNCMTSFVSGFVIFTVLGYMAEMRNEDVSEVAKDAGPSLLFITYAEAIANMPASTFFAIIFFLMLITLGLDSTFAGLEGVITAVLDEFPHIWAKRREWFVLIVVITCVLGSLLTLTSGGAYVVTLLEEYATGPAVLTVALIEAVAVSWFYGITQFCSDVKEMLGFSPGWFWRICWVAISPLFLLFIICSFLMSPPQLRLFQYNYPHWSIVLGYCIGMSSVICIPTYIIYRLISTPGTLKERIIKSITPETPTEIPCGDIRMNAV
measure.name: Kd (nM)
Give bare numbers, in nM.

>  <molecule>
O=[N+]([O-])c1ccc2nc(N3CCNCC3)ccc2c1 [6-NITROQUIPAZINE]

>  <test.system>
Sodium-dependent serotonin transporter (Rattus norvegicus, UniProt P31652)

>  <measured.result>
0.051

$$$$

Q: Provide one value: measured Kd of Cc1c([N+](=O)[O-])ccc2nc(N3CCNCC3)ccc12
Result: 0.051
